Molecular target: UniProt P25774
Sequence (P25774 whole entry): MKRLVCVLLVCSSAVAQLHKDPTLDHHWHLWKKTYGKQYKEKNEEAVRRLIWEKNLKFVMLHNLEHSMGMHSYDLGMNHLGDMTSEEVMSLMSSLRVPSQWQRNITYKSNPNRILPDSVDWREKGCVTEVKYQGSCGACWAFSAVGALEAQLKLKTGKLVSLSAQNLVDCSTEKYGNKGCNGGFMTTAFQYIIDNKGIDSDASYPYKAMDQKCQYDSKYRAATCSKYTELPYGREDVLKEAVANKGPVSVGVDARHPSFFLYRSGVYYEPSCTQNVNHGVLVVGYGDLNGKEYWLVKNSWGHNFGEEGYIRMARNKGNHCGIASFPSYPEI
Test: Inhibitory concentration against human cathepsin S by fluorescence assay using 10 uM Cbz-Val-Val-Arg-AMC
QUANTITY_NAME: IC50 (nM)

[
  {
    "COMPOUND": "CCCC[C@H](NC(=O)O[C@@H]1C(=O)NCC1(C)C)C(=O)C(=O)N[C@H](C)c1ccccc1",
    "IC50 [nM]": 18
  }
]

a: CCCC[C@H](NC(=O)OC1C2CC3CC(C2)CC1C3)C(=O)C(=O)N[C@H](C)c1ccccc1 (stereo partly drawn)
b: CCCC[C@H](NC(=O)OC1C2(C)CCC(C2)C1(C)C)C(=O)C(=O)N[C@H](C)c1ccccc1 (stereo partly drawn)
[in] Which entry has a larger number for IC50, a or b ? Identify your pick by its label.
[out] b
